assay: LC retention time (Atlantis T3, 5-95% MeOH gradient, 0.1% formic acid); higher = more retained / less polar

>  <Molecule>
CC(C)CN(CC(O)C(Cc1ccccc1)NC(=O)OC1COC2OCCC12)S(=O)(=O)c1ccc(N)cc1 (stereo not drawn) [Darunavir]

>  <LC retention time / min>
18

$$$$
>  <Molecule>
CCNC(=O)NC(=O)C(C#N)=NOC [Cymoxanil]

>  <LC retention time / min>
15.2

$$$$
>  <Molecule>
O=C([O-])c1cc(Br)c([O-])c(Br)c1 [3-5-Dibromo-4-hydroxybenzoic-acid]

>  <LC retention time / min>
17.6

$$$$
>  <Molecule>
Cc1nc(N(C)C)nc(OC(=O)N(C)C)c1C [Pirimicarb]

>  <LC retention time / min>
14.1

$$$$
>  <Molecule>
CCC1OC(=O)C(C)C(OC2CC(C)(OC)C(O)C(C)O2)C(C)C(OC2OC(C)CC([N+](C)(C)[O-])C2O)C(C)(OC)CC(C)C(=O)C(C)C(O)C1(C)O (stereo not drawn) [Clarithromycin-N-Oxide]

>  <LC retention time / min>
17.3

$$$$
>  <Molecule>
CC(CN1c2ccccc2CCc2ccccc21)C[NH+](C)C (stereo not drawn) [Trimipramin]

>  <LC retention time / min>
16.2

$$$$
>  <Molecule>
CC1(C)SC2C([NH3+])C(=O)N2C1C(=O)[O-] (stereo not drawn) [6-Aminopenicillanic-acid]

>  <LC retention time / min>
4.79

$$$$
>  <Molecule>
CC12C=CC(=O)C=C1CCC1C2C(=O)CC2(C)C1CCC2(O)C(=O)CO (stereo not drawn) [Prednisone]

>  <LC retention time / min>
17.3

$$$$
